settings: in n-butanol, 308.15 K
quantity-measured: solubility (mole fraction)
Answer field: number only, no words.

O=C(O)CN(CC(=O)O)CP(=O)(O)O yielded solubility (mole fraction) of 0.000246

* * *

details: in n-butanol, 298.15 K
quantity-measured: solubility (mole fraction)
Answer field: number only, no words.

O=C(O)CN(CC(=O)O)CP(=O)(O)O yielded solubility (mole fraction) of 0.000148

* * *

conditions: in ethyl acetate, 293.15 K
quantity-measured: solubility (mole fraction)
Answer field: number only, no words.

O=C(O)CN(CC(=O)O)CP(=O)(O)O yielded solubility (mole fraction) of 0.000528

* * *

settings: in n-pentanol, 323.15 K
quantity-measured: solubility (mole fraction)
Answer field: number only, no words.

O=C(O)CN(CC(=O)O)CP(=O)(O)O yielded solubility (mole fraction) of 0.00105

* * *

conditions: in ethyl acetate, 343.15 K
quantity-measured: solubility (mole fraction)
Answer field: number only, no words.

O=C(O)CN(CC(=O)O)CP(=O)(O)O yielded solubility (mole fraction) of 0.00419

* * *

details: in toluene, 318.15 K
quantity-measured: solubility (mole fraction)
Answer field: number only, no words.

O=C(O)CN(CC(=O)O)CP(=O)(O)O yielded solubility (mole fraction) of 0.000991

* * *

settings: in ethyl acetate, 323.15 K
quantity-measured: solubility (mole fraction)
Answer field: number only, no words.

O=C(O)CN(CC(=O)O)CP(=O)(O)O yielded solubility (mole fraction) of 0.00176

* * *

details: in methanol, 308.15 K
quantity-measured: solubility (mole fraction)
Answer field: number only, no words.

O=C(O)CN(CC(=O)O)CP(=O)(O)O yielded solubility (mole fraction) of 8.57e-05

* * *

conditions: in methanol, 328.15 K
quantity-measured: solubility (mole fraction)
Answer field: number only, no words.

O=C(O)CN(CC(=O)O)CP(=O)(O)O yielded solubility (mole fraction) of 0.000407

* * *

conditions: in toluene, 293.15 K
quantity-measured: solubility (mole fraction)
Answer field: number only, no words.

O=C(O)CN(CC(=O)O)CP(=O)(O)O yielded solubility (mole fraction) of 0.00035

* * *

details: in isopropanol, 313.15 K
quantity-measured: solubility (mole fraction)
Answer field: number only, no words.

O=C(O)CN(CC(=O)O)CP(=O)(O)O yielded solubility (mole fraction) of 0.000248

* * *

conditions: in isopropanol, 298.15 K
quantity-measured: solubility (mole fraction)
Answer field: number only, no words.

O=C(O)CN(CC(=O)O)CP(=O)(O)O yielded solubility (mole fraction) of 4.94e-05

* * *

settings: in toluene, 323.15 K
quantity-measured: solubility (mole fraction)
Answer field: number only, no words.

O=C(O)CN(CC(=O)O)CP(=O)(O)O yielded solubility (mole fraction) of 0.00157

* * *

conditions: in n-pentanol, 298.15 K
quantity-measured: solubility (mole fraction)
Answer field: number only, no words.

O=C(O)CN(CC(=O)O)CP(=O)(O)O yielded solubility (mole fraction) of 0.000149

* * *

settings: in n-butanol, 313.15 K
quantity-measured: solubility (mole fraction)
Answer field: number only, no words.

O=C(O)CN(CC(=O)O)CP(=O)(O)O yielded solubility (mole fraction) of 0.000299

* * *

details: in acetone, 298.15 K
quantity-measured: solubility (mole fraction)
Answer field: number only, no words.

O=C(O)CN(CC(=O)O)CP(=O)(O)O yielded solubility (mole fraction) of 0.000227
